Origin of values: PubChem BioAssay

experiment-description: Cy5 fluorescence interference with SSB-bound oligo, artefact control for HCV NS3 helicase inhibitor project, biochemical, NIH Clinical Collection, E. coli SSB (AID 743268)
Use True when the recorded fluorescence ratio is no lower than 1; use False when it is lower.

# count of solved cases: 3
{"columns": ["molecule", "classification"],
 "data": [
  ["COc1cc2nc(N(C)CCCNC(=O)C3CCCO3)nc(N)c2cc1OC (stereo not given)", "True"],
  ["CC(C)C(=O)Nc1ccc([N+](=O)[O-])c(C(F)(F)F)c1", "False"],
  ["CN(C)CCC[C@@]1(c2ccc(F)cc2)OCc2cc(C#N)ccc21", "True"]
]}

Could you verify whether the entry "C[C@H](CCC(=O)O)[C@H]1CC[C@H]2[C@@H]3C(=O)C[C@@H]4CC(=O)CC[C@]4(C)[C@H]3CC(=O)[C@]12C" shows fluorescence ratio of no less than 1?
False
